Attribution: the supplement of paper PMC11908140

# key: entry, value: 8OG:A repair function score
B1: library; numbered along this chain (parent)
chain: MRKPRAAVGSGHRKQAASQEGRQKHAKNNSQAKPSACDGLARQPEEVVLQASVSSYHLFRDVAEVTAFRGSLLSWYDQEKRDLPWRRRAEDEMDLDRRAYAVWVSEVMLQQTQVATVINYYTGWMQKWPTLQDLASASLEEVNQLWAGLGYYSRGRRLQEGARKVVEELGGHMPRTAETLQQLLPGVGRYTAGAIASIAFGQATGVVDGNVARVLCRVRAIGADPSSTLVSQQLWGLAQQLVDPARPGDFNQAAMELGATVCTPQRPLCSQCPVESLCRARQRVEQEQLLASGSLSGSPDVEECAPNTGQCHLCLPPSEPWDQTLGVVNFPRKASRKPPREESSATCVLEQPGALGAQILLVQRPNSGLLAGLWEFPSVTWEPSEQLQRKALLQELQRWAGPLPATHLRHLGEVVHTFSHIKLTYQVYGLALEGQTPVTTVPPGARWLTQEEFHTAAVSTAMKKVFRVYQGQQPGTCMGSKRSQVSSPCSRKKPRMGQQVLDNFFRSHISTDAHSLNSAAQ

# Variants of: B1
# METHOD DESCRIPTION: 8OG:A repair function score (normalized; synonymous = 0, nonsense = -1) (normalized log-likelihood score); higher = more repair activity (WT-like);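 note: cells sorted at 72 h after reporter transfection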
# TEST PARAMETERS: with 8OG:A DNA repair reporter (GFP) in HEK-293 MUTYH KO cells
Enter a number only.

# annotated cases, reported 8OG:A repair function score shown
mutant_label=C477L reported_endpoint="8OG:A repair function score" reading=0.0205
mutant_label=G297S reported_endpoint="8OG:A repair function score" reading=-0.00596
mutant_label=Y121C reported_endpoint="8OG:A repair function score" reading=-1.17
mutant_label=G155R reported_endpoint="8OG:A repair function score" reading=-0.543

## Task Item under review: R246H . Reported 8OG:A repair function score?
## Result -0.449

## Task Continue with W85A
## Result -1.08
